Data provenance: ChEMBL document CHEMBL1944541

Quick list: Ki per entry.
Target: Nitric oxide synthase 1 (Rattus norvegicus, UniProt P29476)
Sequence (P29476 whole entry): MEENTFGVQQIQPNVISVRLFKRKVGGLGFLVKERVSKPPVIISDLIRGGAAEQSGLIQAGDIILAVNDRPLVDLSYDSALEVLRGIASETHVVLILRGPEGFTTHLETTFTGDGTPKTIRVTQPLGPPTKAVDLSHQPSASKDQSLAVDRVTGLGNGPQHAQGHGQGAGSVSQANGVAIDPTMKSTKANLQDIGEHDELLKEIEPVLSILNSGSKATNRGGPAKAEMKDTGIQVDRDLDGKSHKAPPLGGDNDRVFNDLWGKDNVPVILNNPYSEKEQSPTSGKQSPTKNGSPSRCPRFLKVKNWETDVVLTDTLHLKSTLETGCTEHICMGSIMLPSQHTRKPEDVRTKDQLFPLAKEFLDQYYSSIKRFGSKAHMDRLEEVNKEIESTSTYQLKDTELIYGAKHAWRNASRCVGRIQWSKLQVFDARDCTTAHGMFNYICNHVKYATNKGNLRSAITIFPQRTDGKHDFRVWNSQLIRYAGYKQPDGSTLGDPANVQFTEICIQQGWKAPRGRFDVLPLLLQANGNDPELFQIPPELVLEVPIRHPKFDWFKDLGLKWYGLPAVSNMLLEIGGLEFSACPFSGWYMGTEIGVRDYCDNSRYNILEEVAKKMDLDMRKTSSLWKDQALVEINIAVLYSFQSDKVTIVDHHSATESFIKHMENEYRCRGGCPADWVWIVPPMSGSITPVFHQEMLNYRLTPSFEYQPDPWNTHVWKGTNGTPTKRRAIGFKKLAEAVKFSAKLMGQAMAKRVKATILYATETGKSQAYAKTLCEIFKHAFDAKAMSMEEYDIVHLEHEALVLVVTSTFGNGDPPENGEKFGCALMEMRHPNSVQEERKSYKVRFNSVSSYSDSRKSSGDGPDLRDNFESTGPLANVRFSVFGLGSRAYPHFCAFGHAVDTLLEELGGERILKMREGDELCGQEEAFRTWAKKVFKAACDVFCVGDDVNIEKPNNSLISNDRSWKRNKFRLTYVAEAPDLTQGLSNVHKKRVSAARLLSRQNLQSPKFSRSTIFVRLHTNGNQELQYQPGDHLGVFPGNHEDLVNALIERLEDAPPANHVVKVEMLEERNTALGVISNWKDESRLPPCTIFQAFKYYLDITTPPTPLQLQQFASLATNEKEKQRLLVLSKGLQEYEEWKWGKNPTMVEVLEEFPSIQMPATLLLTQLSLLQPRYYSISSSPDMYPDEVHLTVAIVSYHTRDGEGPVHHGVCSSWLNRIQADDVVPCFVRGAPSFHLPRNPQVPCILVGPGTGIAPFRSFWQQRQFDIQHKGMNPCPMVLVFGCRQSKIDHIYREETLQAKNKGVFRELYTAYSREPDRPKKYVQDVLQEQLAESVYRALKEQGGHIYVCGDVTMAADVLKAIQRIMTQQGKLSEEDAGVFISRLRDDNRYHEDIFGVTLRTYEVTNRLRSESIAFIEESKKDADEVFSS
Assay: Inhibition of rat recombinant nNOS expressed in baculovirus-infected Sf9 cells assessed as conversion of oxyhemoglobin to methemoglobin by UV spectrophotometer analysis
# unit: µM | format: bare number

Would you please look over these solved cases?
O=C(Cn1cnc2ncccc21)c1ccc([N+](=O)[O-])cc1 | 35.8
O=C(Cn1cnc([N+](=O)[O-])c1)c1ccc([N+](=O)[O-])cc1 | 120
O=C(Cn1cc2cccc([N+](=O)[O-])c2n1)c1ccc([N+](=O)[O-])cc1 | 66.2
O=C(Cn1ccnc1)c1ccc(S(=O)(=O)C(F)(F)F)cc1 | 450
Cc1cc2ncn(CC(=O)c3ccc([N+](=O)[O-])cc3)c2cc1C | 13.8
O=C(Cn1cccc1)c1ccc([N+](=O)[O-])cc1 | 230
CC(C)c1nccn1CC(=O)c1ccc([N+](=O)[O-])cc1 | 22.5
O=C(Cn1cccn1)c1ccc([N+](=O)[O-])cc1 | 40

# evaluate next
Please give the measured Ki for this molecule: O=C(Cn1nnc2ccccc21)c1ccc([N+](=O)[O-])cc1
12.5

====

Biological target: Nitric oxide synthase 3 (Mus musculus, UniProt P70313)
Sequence (P70313 whole entry): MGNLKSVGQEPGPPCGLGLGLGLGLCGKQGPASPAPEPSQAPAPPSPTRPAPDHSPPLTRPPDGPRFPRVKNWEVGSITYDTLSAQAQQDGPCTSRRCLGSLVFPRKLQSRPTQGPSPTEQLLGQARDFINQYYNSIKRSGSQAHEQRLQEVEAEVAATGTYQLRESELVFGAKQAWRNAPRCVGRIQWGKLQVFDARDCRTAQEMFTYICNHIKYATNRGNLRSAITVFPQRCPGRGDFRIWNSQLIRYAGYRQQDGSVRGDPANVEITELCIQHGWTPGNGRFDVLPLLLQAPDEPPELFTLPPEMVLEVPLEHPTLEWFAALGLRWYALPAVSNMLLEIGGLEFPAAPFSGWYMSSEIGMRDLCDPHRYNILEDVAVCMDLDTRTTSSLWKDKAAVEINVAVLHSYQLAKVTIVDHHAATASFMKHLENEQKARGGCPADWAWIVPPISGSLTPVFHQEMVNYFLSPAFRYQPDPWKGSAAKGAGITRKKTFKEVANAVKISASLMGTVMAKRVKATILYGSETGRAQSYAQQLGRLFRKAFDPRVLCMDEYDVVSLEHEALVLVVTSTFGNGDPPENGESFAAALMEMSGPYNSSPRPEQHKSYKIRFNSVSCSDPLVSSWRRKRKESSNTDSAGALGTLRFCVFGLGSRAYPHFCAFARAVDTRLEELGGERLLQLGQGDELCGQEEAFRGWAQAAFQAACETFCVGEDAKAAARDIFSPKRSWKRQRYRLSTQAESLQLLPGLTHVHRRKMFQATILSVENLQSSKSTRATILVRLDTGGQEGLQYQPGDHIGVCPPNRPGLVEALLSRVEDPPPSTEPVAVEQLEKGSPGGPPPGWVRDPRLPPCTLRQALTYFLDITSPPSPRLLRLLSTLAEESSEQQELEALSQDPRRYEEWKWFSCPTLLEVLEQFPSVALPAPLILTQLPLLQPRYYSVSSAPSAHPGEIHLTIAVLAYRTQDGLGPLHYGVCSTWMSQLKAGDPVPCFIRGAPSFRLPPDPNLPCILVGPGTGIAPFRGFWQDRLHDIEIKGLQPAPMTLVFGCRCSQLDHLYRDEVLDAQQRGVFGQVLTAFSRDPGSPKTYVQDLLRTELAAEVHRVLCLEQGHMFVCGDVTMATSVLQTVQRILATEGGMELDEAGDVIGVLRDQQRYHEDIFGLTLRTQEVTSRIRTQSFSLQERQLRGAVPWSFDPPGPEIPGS
MEASUREMENT LABEL: pKi
Notebook: values listed as pKi are -log10 of the concentration (mol/L).

Would you please look over these solved cases?
O=C(Cn1ccnc1-c1ccccc1)c1ccc([N+](=O)[O-])cc1 | 4.43
O=C(Cn1cnc(-c2ccccc2)c1)c1ccc([N+](=O)[O-])cc1 | 4.15
Cc1cncn1CC(=O)c1ccc([N+](=O)[O-])cc1 | 4.35
O=C(Cn1cc2cccc([N+](=O)[O-])c2n1)c1ccc([N+](=O)[O-])cc1 | 4.12
O=C(Cn1cnc(-c2ccccc2)c1-c1ccccc1)c1ccc([N+](=O)[O-])cc1 | 4.60

Please give the measured pKi for this compound: O=C(Cn1cccn1)c1ccc([N+](=O)[O-])cc1
4.22
